All figures here come from ChEMBL document CHEMBL1157815.

Tested on: T47D
Experiment: Antiproliferative activity against human T47D cells expressing estrogen receptor after 48 hrs by SRB assay
Format: functional
assay.readout: GI50 (nM)
Give bare numbers, in nM.

Q) State the recorded GI50 for this entry: CC1=C(C)C(=O)O[C@@H]([C@](C)(O)[C@]2(O)CC[C@@]3(O)[C@@H]4C[C@H]5O[C@]56CC=CC(=O)[C@]6(C)[C@H]4CC[C@]23C)C1 [WITHANOLIDE E]
A) 160

Q) State the recorded GI50 for this entry: CCO[C@@]12C[C@H]3[C@@H](C[C@@H](O)[C@@]4(Cl)CC=CC(=O)[C@]34C)[C@@H]3CC[C@@](O)([C@H](C)[C@@H]([C@@H]4O[C@H](O)[C@@]5(C)O[C@@]45C)O1)[C@]32C
A) 13000

# evaluate next
Q) State the recorded GI50 for this entry: CC[C@@]1(O)C(=O)OCc2c1cc1n(c2=O)Cc2cc3ccccc3nc2-1
A) 2000
